Provide the reported IC50 of each item.
Target: Human V1b receptor (Homo sapiens, UniProt P47901)
Assay: Binding test for V1b receptor ([3H]AVP displacement, crude membrane preparation)
Parameters: expressed in transfected cells; host or cells: 293FT cells (transient expression)
Settings: [3H]AVP 0.4 to 1 nmol/L; membranes of 293FT cells transiently expressing human V1b receptor; room temperature, 60 minutes
Your answer should be a number followed by the unit of measure.

Hello, I am looking for reported IC50 with Human V1b receptor (Homo sapiens, UniProt P47901) for CC(C)NC(=O)Cn1c(-c2cccc(Cl)c2)cc2cc(OCCCN3CCCC(O)C3)ccc21 (stereo not shown) . Could you help?
73.4 nM

# iterate: CC(C)NC(=O)Cn1c(-c2cccc(Cl)c2)cc2cc(OCCCN3CCC(O)C3)ccc21 (stereo not shown)
52.3 nM

Try the compound CC(C)NC(=O)Cn1c(-c2cccc(Cl)c2)cc2cc(OCCCN3CCCCC3)ccc21
8.7 nM

Further, for CC(C)NC(=O)Cn1c(-c2cccc(Cl)c2)nc2cc(OCCCN3CCOCC3)ccc21 ?
14.1 nM

Follow-up entry: CC(C)NC(=O)Cn1c(-c2cccc(Cl)c2)cc2cc(OCCCN3CCC4(CC3)COC4)ccc21
20.2 nM

And CC(C)NC(=O)Cn1c(-c2cccc(Cl)c2)cc2c1CCN(CCCCN1CCCCC1)C2 ?
522 nM

One more compound: CC(C)NC(=O)Cc1nc2cc(OCCCN3CCCCC3)ccn2c1-c1cccc(Cl)c1
82 nM

// repeat for COc1cc(-c2nc3cc(N4CCCN(C(C)C)CC4)ccc3n2CC(=O)NC(C)(C)C)ccc1F and report
8.6 nM

// next record COc1cc(-c2nc3cc(OCCCN4CCOCC4)ccc3n2CC(=O)NC(C)C)ccc1F
29.3 nM

Thanks! And COc1cc(-c2cc3cc(OCCCN4CC5(COC5)C4)ccc3n2CC(=O)NC(C)C)ccc1F ?
8.3 nM

Then what about the compound COc1cc(-c2nc3cc(OCCCN4[C@@H]5CC[C@H]4COC5)ccc3n2CC(=O)NC(C)C)ccc1F ?
2.5 nM

Now this one: COc1cccc(-c2cc3cc(OCCCN4CCCCC4)ccc3n2CC(=O)NC(C)C)c1
129 nM

Lookup COc1cc(-c2nc3cc(OCCCN4CCCCC4)ccc3n2CC(=O)NC(C)C)ccc1F
43.3 nM

Next record, please: CC(C)NC(=O)Cn1c(-c2ccc(F)c(Cl)c2)nc2cc(OCCCN3[C@@H]4CC[C@H]3COC4)ccc21
1.7 nM

Also, COc1cc(-c2cc3cc(OCCCN4CCCC(O)C4)ccc3n2CC(=O)NC(C)C)ccc1F (stereo not shown) please.
87.1 nM

Another compound to look at: CC(C)NC(=O)Cn1c(-c2cccc(Cl)c2)cc2cc(OCCCN3CCOCC3)ccc21
6.4 nM

----------
Target: Human V1b receptor (Homo sapiens)
Sequence (P47901 1-424): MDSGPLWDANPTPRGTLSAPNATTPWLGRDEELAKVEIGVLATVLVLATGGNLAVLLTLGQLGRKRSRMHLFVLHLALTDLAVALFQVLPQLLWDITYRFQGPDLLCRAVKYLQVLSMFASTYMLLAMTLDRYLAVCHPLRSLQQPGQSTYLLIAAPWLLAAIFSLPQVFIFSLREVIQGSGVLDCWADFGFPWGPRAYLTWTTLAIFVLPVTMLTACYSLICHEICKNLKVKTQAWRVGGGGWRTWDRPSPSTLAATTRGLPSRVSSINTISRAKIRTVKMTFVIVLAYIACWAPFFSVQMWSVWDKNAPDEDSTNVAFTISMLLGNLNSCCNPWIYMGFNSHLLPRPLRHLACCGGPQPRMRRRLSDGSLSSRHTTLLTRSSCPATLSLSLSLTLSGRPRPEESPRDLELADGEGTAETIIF
Experiment: Binding test for V1b receptor ([3H]AVP displacement, crude membrane preparation)
Set-up: expressed in transfected cells; host or cells: 293FT cells (transient expression)
Conditions: [3H]AVP 0.4 to 1 nmol/L; membranes of 293FT cells transiently expressing human V1b receptor; room temperature, 60 minutes
Could you please report measured IC50 for the items listed next?
Express your answer in nM, writing the number without its unit.

Requested read-out: IC50. Entry: COc1cncc(-c2cc3cc(OCCCN4CCCCC4)ccc3n2CC(=O)NC(C)C)c1
387

Another molecule: CC(C)NC(=O)Cn1c(-c2cccc(Cl)c2)cc2cc(OCCCN3CCC(O)CC3)ccc21
18.4

Here is the next molecule: CN1CCCN(c2ccc3c(c2)nc(-c2ccc(F)c(Cl)c2)n3CC(=O)NC(C)(C)C)CC1
3.1

Follow-up item: CC(C)NC(=O)Cn1c(-c2ccc(F)c(Cl)c2)cc2cc(OCCCN3CCOCC3)ccc21
8.9

Check COc1cc(-c2nc3cc(-c4cc(Cl)cc(CN(C)C)c4)ccc3n2CC(=O)NC(C)C)ccc1F too.
2.6

Field entry: CC(C)NC(=O)Cn1c(-c2cccc(Cl)c2)cc2cc(OC3CCN(C4CC4)CC3)ccc21
10.4

And for CC(C)NC(=O)Cc1c(-c2ccc(F)c(Cl)c2)nc2cc(OCCCN3CCOCC3)ccn12 ?
9.9

Also check CC(C)NC(=O)Cn1c(-c2cccc(Cl)c2)nc2cc(OCCCN3CC4(COC4)C3)ccc21
8.3

----------
Target: Human V1b receptor (Homo sapiens, UniProt P47901)
Assay: Binding test for V1b receptor ([3H]AVP displacement, crude membrane preparation)
Set-up: expressed in transfected cells; host or cells: 293FT cells (transient expression)
Conditions: [3H]AVP 0.4 to 1 nmol/L; membranes of 293FT cells transiently expressing human V1b receptor; room temperature, 60 minutes
Answer each item with its documented pIC50.
Just the number, please; pIC50 means minus log10 of the concentration in mol/L.

Enter reported pIC50 observed with Human V1b receptor (Homo sapiens, UniProt P47901) for CC(C)NC(=O)Cn1c(-c2ccc(F)c(Cl)c2)cc2cc(OC3CCN(C4CCCC4)CC3)ccc21
9.07

Now try CC(C)NC(=O)Cn1c(-c2ccc(F)c(Cl)c2)nc2cc(OCCCN3CCCCCC3)ccc21 .
7.48

Next up: CC(C)NC(=O)Cn1c(-c2cccc(Cl)c2)cc2cc(OCCCN3CCCCC3)cnc21
7.67

// same read-out, input: COc1cc(-c2nc3cc(N4CCCN(C)CC4)ccc3n2CC(=O)NC(C)(C)C)ccc1F
8.47

Please answer likewise for COc1cccc(-c2nc3cc(OCCCN4CCOCC4)ccc3n2CC(=O)NC(C)C)n1
7.08

Also need CC(C)NC(=O)Cn1c(-c2cccc(Cl)c2)nc2cc(OCCCN3[C@@H]4CC[C@H]3COC4)ccc21 , thanks.
8.30

Follow-up item: COc1cc(-c2cc3cc(OCCCN4CCC[C@H]4C)ccc3n2CC(=O)NC(C)C)ccc1F
6.78

Proceed to COc1cc(-c2cc3cc(OCCCN4CCC(O)C4)ccc3n2CC(=O)NC(C)C)ccc1F (centres unmarked)
7.06

----------
Biological target: UniProt:P47901
Assay: Measurement of V1b receptor antagonistic activity (AVP-induced Fluo-4 fluorescence, FDSS)
Assay type: cell-based
Set-up: expressed in transfected cells
Settings: CHO cells stably expressing human V1b receptor; AVP 2.5 nmol/L; 30 minutes preincubation with test compound
Measured Parameter: IC50 (µM)
Write the answer as a number in µM, unit excluded.

Data request, read-out IC50, for CC(C)NC(=O)Cn1c(-c2cccc(Cl)c2)nc2cc(OCCCN3CCCCC3)ccc21
0.212

Note, next up: CC(C)NC(=O)Cn1c(-c2cccc(Cl)c2)cc2cc(OCCCN3CC4(COC4)C3)ccc21
0.0214

Repeat with COc1cc(-c2nc3cc(-c4cc(Cl)cc(CN(C)C)c4)ccc3n2CC(=O)NC(C)C)ccc1F
0.101

Queued: CC(C)NC(=O)Cn1c(-c2ccc(F)c(Cl)c2)cc2cc(OCCCN3CCCCC3)ccc21
0.0219

Also COc1cc(-c2nc3cc(OCCCN4CCCCC4)ccc3n2CC(=O)NC(C)C)ccc1F ?
0.122

Please answer likewise for CC(C)NC(=O)Cn1c(-c2ccc(F)c(Cl)c2)nc2cc(OCCCN3CCCCCC3)ccc21
0.0624

Repeat with CC(C)NC(=O)Cn1c(-c2cccc(Cl)c2)cc2cc(OCCCN3CCCCC3)cnc21
0.0508

What would you report for CC(C)NC(=O)Cn1c(-c2ccc(F)c(Cl)c2)cc2cc(OCCCN3CCOCC3)ccc21 ?
0.008

Consider next the compound CC(C)NC(=O)Cn1c(-c2ccc(F)c(Cl)c2)nc2cc(OCCCN3CCCCC3)ccc21 in the same way.
0.088

Try this compound too: CC(C)NC(=O)Cn1c(-c2ccc(F)c(Cl)c2)cc2cc(OC3CCN(C4CCCC4)CC3)ccc21
0.006

What would you report for CC(C)NC(=O)Cn1c(-c2cccc(Cl)c2)cc2cc(OCCCN3CCCCC3)ccc21 ?
0.097

Same again, this time with CC(C)NC(=O)Cn1c(-c2ccc(F)c(Cl)c2)nc2cc(OCCCN3CCOCC3)ccc21
0.0535

Would you kindly repeat that for COc1cc(-c2nc3cc(OCCCN4CCOCC4)ccc3n2CC(=O)NC(C)C)ccc1F ?
0.0259
